# System: LXRa homodimer (NR concentration 270 nM)
# method notes: PBM binding z-score (relative to random genomic background probes); higher = stronger binding; sequences stand for … in GC…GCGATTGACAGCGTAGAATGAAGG
assay readout: PBM binding z-score

Prompt line: I have this sequence here, "TTATATAGGTAAAAGGTGAAAGTCGGTGTGGTAA" , and I need its recorded PBM binding z-score.
Response line: 0.372

* * *

# System: PPARg:RXRa DBDmut IVT, anti-RXR (DBD mutation: RXRa K156A/R161A, NR concentration 270 nM, RXRa partner concentration 90 nM)
# method notes: PBM binding z-score (relative to random genomic background probes); higher = stronger binding; sequences stand for … in GC…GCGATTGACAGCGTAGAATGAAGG
sequences and their reported PBM binding z-score
Reply with just the number.

Example sequences with recorded PBM binding z-score:
INSERT INTO assay_data (item_sequence, value_measured) VALUES
  ('GCGACTGGGGCAAAGCAGGTTACGATAAGGTTGG', 4.13),
  ('GCTGCTAGGTCAGGTTGGTCAGCTAGCGGGTACG', 2.9),
  ('GCAGACAGGTGAAAGGCAGGTAACTCAGGGTGGC', 0.331),
  ('CCGACTGGGACAAAGGTTACCATACTCAGTACGA', 3.26),
  ('ACAGCCAGGTGAGTGAAGGTAACTCAGCTGGACG', 0.411);

Let us examine a further case.
Prompt line: I have this sequence here, "TCTATTAGTTGATTATGGCAACCGAAACAGCGGA" , and I need its recorded PBM binding z-score.
Response line: 2.17
